- measurement.notes: Cytotoxicity against mouse RAW264.7 cells assessed as survival rate at 10 uM after 24 hrs by MTT assay
- Assay type: cell-based
- assay.setup: read-out: Activity
Please provide measured viability at 24 h, 10 µM for the entries that follow.
Value expressed in %; do not type the unit.

Query: Note down viability at 24 h, 10 µM recorded for `O=C(Nc1ccc(Cl)cc1F)c1ccccc1OCc1ccc(F)cc1F`
Reply: 107

Query: Note down viability at 24 h, 10 µM recorded for `O=C(Nc1ccc(-c2ccc(Cl)cc2F)cc1F)c1ccccc1O`
Reply: 90.9

Query: Note down viability at 24 h, 10 µM recorded for `O=C(Nc1ccc(-c2ccc(Cl)cc2Cl)cc1F)c1ccccc1O`
Reply: 105

Query: Note down viability at 24 h, 10 µM recorded for `COc1ccc(C(=O)Nc2ccc(Cl)cc2F)cc1`
Reply: 106

Query: Note down viability at 24 h, 10 µM recorded for `COc1ccc(C(=O)Nc2ccc(I)cc2F)cc1`
Reply: 91.4

Query: Note down viability at 24 h, 10 µM recorded for `O=c1oc2ccccc2c(=O)n1-c1ccc(Cl)cc1F`
Reply: 97.9

Query: Note down viability at 24 h, 10 µM recorded for `COc1ccc(C(=O)Nc2ccc(-c3ccc(Cl)cc3Cl)cc2F)c(O)c1`
Reply: 102

Query: Note down viability at 24 h, 10 µM recorded for `COc1ccc(C(=O)Nc2ccc(F)cc2F)cc1`
Reply: 102

Query: Note down viability at 24 h, 10 µM recorded for `COc1ccc(C(=O)Nc2ccc(I)cc2F)c(OCc2ccc(F)cc2F)c1`
Reply: 104

Query: Note down viability at 24 h, 10 µM recorded for `COc1ccccc1C(=O)Nc1ccc(F)cc1F`
Reply: 108

Query: Note down viability at 24 h, 10 µM recorded for `O=C(Nc1ccc(F)cc1F)c1ccccc1`
Reply: 105

Query: Note down viability at 24 h, 10 µM recorded for `O=C(Nc1ccc(-c2ccc(F)cc2F)cc1F)c1ccccc1O`
Reply: 102
